subject-of-test: plasma kallikrein (Homo sapiens, UniProt P03952)
Construct: from tissue
Sequence (P03952 391-638 limits assumed): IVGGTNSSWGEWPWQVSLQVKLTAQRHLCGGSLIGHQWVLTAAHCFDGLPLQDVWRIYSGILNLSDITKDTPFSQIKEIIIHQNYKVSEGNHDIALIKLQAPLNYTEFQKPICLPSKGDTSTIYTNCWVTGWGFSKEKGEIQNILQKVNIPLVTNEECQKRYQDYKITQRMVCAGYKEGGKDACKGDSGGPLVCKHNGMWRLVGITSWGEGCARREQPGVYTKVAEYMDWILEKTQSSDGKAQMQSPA
Sequence (P03952 20-390 partner limits assumed): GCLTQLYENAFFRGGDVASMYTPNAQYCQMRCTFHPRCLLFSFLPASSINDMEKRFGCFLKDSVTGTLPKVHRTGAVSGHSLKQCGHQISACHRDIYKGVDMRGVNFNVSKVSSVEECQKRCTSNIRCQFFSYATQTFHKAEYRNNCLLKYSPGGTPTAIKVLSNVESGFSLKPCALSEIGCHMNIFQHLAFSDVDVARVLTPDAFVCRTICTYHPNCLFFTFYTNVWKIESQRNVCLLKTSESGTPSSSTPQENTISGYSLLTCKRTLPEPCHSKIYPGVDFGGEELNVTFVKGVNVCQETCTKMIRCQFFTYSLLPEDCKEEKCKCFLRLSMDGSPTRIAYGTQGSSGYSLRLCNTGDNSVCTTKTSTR
assay-text: Neat human plasma assay, FXIIa contact pathway-activated, PFR-AMC substrate
Type: biochemical
run-conditions: citrated human plasma 78% final, 10 nM human FXIIa, 100 μM PFR-AMC; read-out: Human Plasma Assay: IC90
measured-parameter: IC90

These solved cases illustrate the format of a correct answer.
>>> print(df.to_string())
                                   compound  measured_parameter     endpoint_value
0  CN1CCC(Nc2cc(C3CC3)cn3cc(CNc4cc(NC(=O)[C@H]5C[C@@H]5c5cccc(Cl)c5)ncn4)nc23)CC1                IC90     400 to 1500 nM
1  CS(=O)(=O)c1cc(C2CC2)cn2cc(CNc3cc(NC(=O)[C@H]4C[C@@H]4c4cccc(Cl)c4)ncn3)nc12 (racemic) [Example 60]                IC90  10000 to 48000 nM
2  Cc1ccnc([C@@]2(F)C[C@@H]2C(=O)Nc2cc(NCc3cn4cc(C5CC5)cc(N5CC(=O)N(C)C5=O)c4n3)ncn2)n1 (racemic)                IC90           < 400 nM

Switching to the query record.
Data point: `Cc1ccnc([C@H]2C[C@@H]2C(=O)Nc2cc(NCc3cn4cc(C5CC5)cc(N5CC6(COC6)OC5=O)c4n3)ncn2)n1` ; IC90 = < 400 nM

====

Below, each of the compounds is paired with its reported IC90 value.
subject-of-test: plasma kallikrein (Homo sapiens, UniProt P03952)
Construct: from tissue
assay-text: Neat human plasma assay, FXIIa contact pathway-activated, PFR-AMC substrate
Type: biochemical
run-conditions: citrated human plasma 78% final, 10 nM human FXIIa, 100 μM PFR-AMC; read-out: Human Plasma Assay: IC90

These solved cases illustrate the format of a correct answer.
>>> df
                                   compound  endpoint_value
0  O=C(Nc1cc(NCc2cn3cc(C4CC4)cc(C4(F)COC4)c3n2)ncn1)[C@H]1C[C@@H]1c1cccc(Cl)c1 (racemic)      > 48000 nM
1  CN1CC(O)(c2cc(C3CC3)cn3cc(CNc4ccnc(NC(=O)[C@H]5C[C@@H]5c5cccc(Cl)c5)c4)nc23)C1        < 400 nM
2  CN1CCC(O)(c2cc(C3CC3)cn3cc(CNc4ccnc(NC(=O)[C@H]5C[C@@H]5c5cccc(Cl)c5)c4)nc23)CC1  400 to 1500 nM

Switching to the query record.
Data point: `Cc1ccnc([C@H]2C[C@@H]2C(=O)Nc2cc(N[C@H](C)c3cn4cc(C(C)C)cc(N5CC(=O)N(C)C5=O)c4n3)ncn2)n1` ; IC90 = < 400 nM

====

subject-of-test: plasma kallikrein (Homo sapiens, UniProt P03952)
Construct: from tissue
assay-text: Neat human plasma assay, FXIIa contact pathway-activated, PFR-AMC substrate
Assay type: biochemical
run-conditions: citrated human plasma 78% final, 10 nM human FXIIa, 100 μM PFR-AMC; read-out: Human Plasma Assay: IC90
Below, each of the compounds is paired with its reported IC90 value.

These solved cases illustrate the format of a correct answer.
                                   compound                           subject_of_test     endpoint_value
0  O=C(Nc1ncnc(NCc2cn3cc(C4CC4)ccc3n2)n1)[C@H]1C[C@@H]1c1cccc(Cl)c1 (racemic) [Example 344]  plasma kallikrein (Homo sapiens, UniProt P03952)   1500 to 10000 nM
1  Cc1ccnc([C@H]2C[C@@H]2C(=O)Nc2cncc(NCc3cn4cc(C5CC5)cc(N5CC(=O)N(C)C5=O)c4n3)n2)n1 (racemic) [Example 526]  plasma kallikrein (Homo sapiens, UniProt P03952)     400 to 1500 nM
2  CS(=O)(=O)c1cc(C2CC2)cn2cc(CNc3ccnc(NC(=O)[C@H]4C[C@@H]4c4cccc(Cl)c4)c3)nc12 [Example I-235]  plasma kallikrein (Homo sapiens, UniProt P03952)     400 to 1500 nM
3  COc1ccc(C#N)c([C@H]2C[C@@H]2C(=O)Nc2cc(NCc3cn4cc(C5CC5)ccc4n3)ccn2)c1 (single isomer, unassigned) [Example I-224]  plasma kallikrein (Homo sapiens, UniProt P03952)  10000 to 48000 nM

Data point: CC(C)(O)c1cc(C2CC2)cn2cc(CNc3cc(NC(=O)[C@H]4C[C@@H]4c4cccc(Cl)c4)ncn3)nc12 [Example I-159] ; IC90 = 10000 to 48000 nM

Data point: O=C(Nc1cc(NCc2cn3cc(C4CC4)cc(N4C[C@@H]5C[C@@H]5C4=O)c3n2)ncn1)[C@H]1C[C@@H]1c1cccc(Cl)c1 (racemic) [Example 457] ; IC90 = 400 to 1500 nM

Data point: O=C(Nc1cc(N(CCO)Cc2cn3cc(C4CC4)ccc3n2)ccn1)[C@H]1C[C@@H]1c1cc(Cl)ccn1 [Example 137] ; IC90 = 1500 to 10000 nM
